- Tested on: LZK
- Construct: gene MAP3K13
- experimental conditions: concentration: 1 μM, replicates: in singlicate; n = 1;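 note: KINOMEscan kinase panel screen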

smiles: COc1ccccc1-c1ccc2c(NC(=O)C3CC3)n[nH]c2n1
%Inh (%): 24
//
smiles: CS(=O)(=O)c1ccc(-c2c(-c3ncn[nH]3)sc(N3CCOCC3)c2C#N)cc1
%Inh (%): 0
//
smiles: Cc1csc(-c2nc(Nc3ccncc3)c3ccccc3n2)n1
%Inh (%): 20
//
smiles: Cc1ccccc1-n1cnc2c(N)ncnc21
%Inh (%): 0
//
smiles: Nc1ncnc2[nH]c(-c3ccccc3)nc12
%Inh (%): 0
//
smiles: Nc1nc(-c2nccs2)c(-c2ccnc3ccccc23)s1
%Inh (%): 3
//
smiles: Cc1cccc(-c2nc(Nc3cccc(C(N)=O)c3)c3ccccc3n2)n1
%Inh (%): 0

* * *

- Test system: EPHB1
- experimental conditions: concentration: 1 μM, replicates: in singlicate; n = 1

compound: Cn1ccc2ncnc(Oc3ccc(Nc4nc5ccccc5[nH]4)cc3)c21
%Inh, %: 0
//
compound: NC(=O)c1nnc2ccccc2c1N
%Inh, %: 0
//
compound: O=c1cc(N2CCOCC2)nc2n(Cc3cccc(Cl)c3Cl)ccn12
%Inh, %: 13
//
compound: COc1ccc(CNC(=O)NC2CCN(c3ccnc(Nc4cc(OC)c(OC)c(OC)c4)n3)C2)cc1 (stereo not shown)
%Inh, %: 20
//
compound: COc1cccc(NC(=O)NC2CCN(c3ccnc(Nc4ccc(F)cc4)n3)C2)c1 (stereo not shown)
%Inh, %: 17
//
compound: O=C1NC(=O)C(N2CCc3ccccc32)=C1c1ccccc1Cl
%Inh, %: 9
//
compound: COc1cc(Nc2nccc(N3CCC(NC(=O)Nc4cc(C)ccc4C)C3)n2)cc(OC)c1OC (stereo not shown)
%Inh, %: 12
//
compound: Cc1cc(-c2ccc3c(c2)CC[C@@H](N[C@@H](C)c2ccccc2)C3)cnc1N.Cl
%Inh, %: 9
//
compound: CCn1c(-c2cccnc2O)nc2cnccc21
%Inh, %: 0
//
compound: COc1ccccc1CNC(=O)c1cc(C(=O)c2ccccc2C)c[nH]1
%Inh, %: 25
//
compound: COc1ccc(C2=C(Nc3cccc(C(=O)O)c3)C(=O)NC2=O)cc1
%Inh, %: 5
//
compound: Cc1ccc(NC(=O)Nc2cc(C(C)(C)C)nn2-c2ccccc2)cc1
%Inh, %: 14
//
compound: O=C(Nc1n[nH]c2nc(-c3nccs3)c(Br)cc12)C1CCCC1
%Inh, %: 0
//
compound: Cc1ccc(C(=O)Nc2ccc(Nc3ccnc4cc(-c5ccccn5)ccc34)cc2O)cc1.Cl
%Inh, %: 5
//
compound: COc1ccc(Nc2nccc(-c3cccc(NC(=O)c4cc5cc(F)ccc5[nH]4)c3)n2)cc1
%Inh, %: 32
//
compound: COC(=O)c1c(-c2ccccc2)c2cc(OC)ccc2c(=O)n1Cc1ccccc1
%Inh, %: 0
//
compound: O=C(O)COc1ncnc2cc(-c3ccc4[nH]ncc4c3)sc12
%Inh, %: 0
//
compound: Nc1ncnc2[nH]c(-c3ccccc3)nc12
%Inh, %: 0
//
compound: Cc1cccc(-c2nc(Nc3cccc(C(N)=O)c3)c3ccccc3n2)n1
%Inh, %: 9

* * *

- Test system: CHEK1
- experimental conditions: concentration: 1 μM, replicates: in singlicate; n = 1

compound: Cl.NC(=O)c1cccc(Nc2nccc(Nc3ccc(Oc4cccc(Cl)c4)c(Cl)c3)n2)c1 [GW659008]
%Inh: 0%

compound: Cc1cc(N2Cc3ccccc3C2)nc(Nc2ccc(S(=O)(=O)N3CCOCC3)cc2)n1.Cl [GSK1669917]
%Inh: 0%

compound: O=C(Nc1n[nH]c2nc(-c3nccs3)c(Br)cc12)C1CCCC1 [SB-742609]
%Inh: 0%

compound: Cc1cccc(-c2nc(-c3ccc(S(C)(=O)=O)cc3)sc2-c2ccnc(NCCc3ccccc3)c2)c1
%Inh: 0%

compound: O=C1NC(=O)C(N2CCc3ccccc32)=C1c1ccccc1Cl [SB-373598]
%Inh: 2%

compound: Cc1cccc(-c2cc(Nc3ccncc3)c3ccccc3n2)n1 [GSK223675]
%Inh: 0%

compound: Cn1cncc1-c1ccc2ncnc(Nc3ccc(OCc4ccccc4)cc3)c2c1 [GW320571]
%Inh: 15%

compound: Cc1cc(-c2ccc3c(c2)CC[C@@H](N[C@@H](C)c2ccccc2)C3)cnc1N.Cl [GW412617]
%Inh: 14%

compound: Clc1cc(Cl)cc(Nc2ccnc(Nc3cc(Cl)cc(Cl)c3)n2)c1 [GSK175726]
%Inh: 0%

compound: Fc1cc(Cl)ccc1Nc1ccnc2cc(-c3ccc(CN4CCCCC4)o3)ccc12 [GW560116]
%Inh: 0%

compound: Cl.Oc1ccc(-c2nc(-c3ccccc3)[nH]c2-c2ccncc2)cc1 [SB-428218]
%Inh: 0%

compound: CS(=O)(=O)c1ccc(-c2c(-c3ncn[nH]3)sc(N3CCOCC3)c2C#N)cc1
%Inh: 0%

compound: Cc1cccc(-c2nc(Nc3ccc4[nH]ncc4c3)c3ccccc3n2)n1 [GW857175]
%Inh: 4%

compound: O=C(Nc1n[nH]c2nc(-c3nccs3)c(Br)cc12)C1CC1 [SB-742251]
%Inh: 0%

compound: Cn1ccc2ncnc(Oc3cccc(C(=O)Nc4ccccc4)c3)c21
%Inh: 0%

compound: Fc1cccc(COc2nnc(-c3ccc4c(c3)CCO4)o2)c1
%Inh: 0%

compound: O=C(Nc1ccc2c(c1)OCO2)NC1CCN(c2ccnc(Nc3ccc(F)cc3)n2)C1 (stereo not shown) [GSK1379724]
%Inh: 0%

compound: Cc1c(Cn2ccn3c(=O)cc(N4CCOCC4)nc23)cccc1C(F)(F)F [GSK2289044]
%Inh: 0%

compound: NC(=O)c1nnc2ccccc2c1N
%Inh: 0%
